B1: tRNA (parent)
chain: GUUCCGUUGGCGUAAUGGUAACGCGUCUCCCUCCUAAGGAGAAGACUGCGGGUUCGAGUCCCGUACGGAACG

- Variants of: B1
- Experiment summary: yeast fitness relative to wild type (ratio to wild type); higher = fitter; tRNA-Arg(CCU), competitive growth, 37 C, YPD
Variants at the floor of the assay were thinned out.
Result type: yeast fitness
Number only, no unit.

A21C A36U :: 0.54
C5U C30G A36U G51A G52A :: 0.524

Alright, here's another variant for you.
Reported yeast fitness of A14U A15C C31G A43U : 0.627
